# System: PC-3
# Measurement Notes: Antitumor activity against human PC3 cells after 72 hrs by MTT assay
# Type: functional, cell-based
# Test Settings: Homo sapiens, PC-3, 72 h; read-out: IC50
Each record is given rule met if its reported IC50 is strictly below 80 µM. Records at or above 80 µM are given rule not met.

State whether 80 µM exceeds IC50 recorded for `O=C1OCC=C1CSC(=S)Nc1ccccc1` . rule not met

State whether 80 µM exceeds IC50 recorded for `CN1CCN(C(=S)SCC2=CCOC2=O)CC1` . rule met

State whether 80 µM exceeds IC50 recorded for `CC(C)NC(=S)SCC1=CCOC1=O` . rule met

State whether 80 µM exceeds IC50 recorded for `O=C1OCC=C1CSC(=S)NCc1ccccc1` . rule met

State whether 80 µM exceeds IC50 recorded for Cc1ccc(N2C(=S)SCC23COC(=O)C3)cc1 (stereo not drawn) . rule not met

State whether 80 µM exceeds IC50 recorded for `CNC(=S)SCC1=CCOC1=O` . rule met

State whether 80 µM exceeds IC50 recorded for `CN(C)C(=S)SCC1=CCOC1=O` . rule not met

State whether 80 µM exceeds IC50 recorded for `CCN(CC)C(=S)SCC1=CCOC1=O` . rule met

State whether 80 µM exceeds IC50 recorded for `CCNC(=S)SCC1=CCOC1=O` . rule met

State whether 80 µM exceeds IC50 recorded for `O=C1OCC=C1CSC(=S)NC1CC1` . rule not met

State whether 80 µM exceeds IC50 recorded for `O=C1OCC=C1CSC(=S)N1CCOCC1` . rule met

State whether 80 µM exceeds IC50 recorded for `O=C1OCC=C1CSC(=S)N1CCCC1` . rule not met

State whether 80 µM exceeds IC50 recorded for `O=c1[nH]cc(F)c(=O)[nH]1` . rule met

State whether 80 µM exceeds IC50 recorded for `Cc1ccc(NC(=S)SCC2=CCOC2=O)cc1` . rule not met

The measured values listed here are drawn from ChEMBL document CHEMBL1770062.
